Test system: Mycobacterium abscessus subsp. massiliense
test: Inhibition of MmpL3 in Mycobacterium massiliense isolate 1513 assessed as reduction in trehalose monomycolate by measuring decrease in mycolic acid transfer to cell envelope after 16 hrs using [1,2-14C]acetate labeled compounds by TLC analysis
readout-label: inhibition

1) O=C(NC12CC3CC(CC(C3)C1)C2)c1cc2ccccc2[nH]1 :: Dose-dependent effect
2) Cc1cc(C)c2cc(C(=O)NC3CCCCCCC3)[nH]c2c1 :: Dose-dependent effect
3) Cc1cc(C)c2cc(C(=O)N[C@@H]3C[C@@H]4C[C@H]([C@H]3C)C4(C)C)[nH]c2c1 :: Dose-dependent effect
4) C[C@@H]1[C@H]2C[C@@H](C[C@H]1NC(=O)c1cc3ccccc3[nH]1)C2(C)C :: Dose-dependent effect
